# System: CT60 cells
# protocol.description: Toxicity assay by cell count (Hoechst 33258)
# Type: cell-based, Chinese hamster
# condition.details: 10 μM
parameter.measured: Cell Count After 24 h @ 10 μM dose Fraction of Control

Please review the entries below; each comes with its answer.
>>> assay_value("COc1ccccc1Nc1nc(Nc2ccccc2OC)nc(Nc2ccccc2OC)n1 [Compound 2-a-9]")
"0.90 Fraction of Control"
>>> assay_value("FC(F)(F)COc1nc(NN=Cc2cccc(I)c2)nc(N(c2ccccc2)c2ccccc2)n1 [Compound 2-a-12]")
"0.67 Fraction of Control"
>>> assay_value("C=CCN1C(=O)C(=Cc2cc(C)n(-c3ccccc3)c2C)C(C(=O)OC)=C1C [Compound 2-a-15]")
"0.94 Fraction of Control"

Kindly state the measured Cell Count After 24 h @ 10 μM dose Fraction of Control obtained for O=[N+]([O-])c1cccc(C=NNc2nc(Nc3cccc4ccccc34)nc(N(c3ccccc3)c3ccccc3)n2)c1 [Compound 2-a-13] with CT60 cells.
1.00 Fraction of Control

Report Cell Count After 24 h @ 10 μM dose Fraction of Control for CCN(CC)c1ccc(C=C2SC(=S)N(c3ccc(OC)cc3)C2=O)cc1 [Compound 2-a-3] tested on CT60 cells.
1.00 Fraction of Control

Values were extracted from patent US20090012148A1.
